These entries and their values trace back to the FLAb antibody collection.

# protocol.notes: patients with anti-drug antibodies; higher = more immunogenic
As shown below, each of these proteins has a reported patients with anti-drug antibodies value.
A number alone suffices; assume %.

Recorded patients with anti-drug antibodies, per entry:
* unnamed (protein) chain 1: QAYLQQSGAELVRPGASVKMSCKASGYTFTSYNMHWVKQTPRQGLEWIGAIYPGNGDTSYNQKFKGKATLTVDKSSSTAYMQLSSLTSEDSAVYFCARVVYYSNSYWYFDVWGTGTTVTVSG chain 2: QIVLSQSPAILSASPGEKVTMTCRASSSVSYMHWYQQKPGSSPKPWIYAPSNLASGVPARFSGSGSGTSYSLTISRVEAEDAATYYCQQWSFNPPTFGAGTKLELK | 45.5
* unnamed (protein) chain 1: EVQLVESGGGVVQPGKSLRLSCAASGLTFSSYAVHWVRQAPGKGLEWVTLISYDGANQYYADSVKGRFTISRDNSKNTVYLQMNSLRPEDTAVYYCAVPGPVFGIFPPWSYFDNWGQGILVTVSS chain 2: EIVLTQSPATLSVSPGERATLSCRASQVISHNLAWYQQKPGQAPRLLIYGASTRASGIPARFSGSGSGTDYTLTITSLQSEDFAVYYCQHYSNWPPRLTFGGGTKVEIK | 1

Switching to the query record.
protein unnamed (protein) chain 1: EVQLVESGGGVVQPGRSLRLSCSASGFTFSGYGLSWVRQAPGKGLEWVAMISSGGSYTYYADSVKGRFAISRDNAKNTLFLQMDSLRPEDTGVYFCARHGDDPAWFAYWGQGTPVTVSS chain 2: DIQLTQSPSSLSASVGDRVTITCSVSSSISSNNLHWYQQKPGKAPKPWIYGTSNLASGVPSRFSGSGSGTDYTFTISSLQPEDIATYYCQQWSSYPYMYTFGQGTKVEIK , patients with anti-drug antibodies observed: 8.7
